Origin of the recorded values: patent US20080262228A1

assay: In vivo metabolism of [14C]COMPOUND I in Sprague-Dawley rats, single oral 5 mg/kg dose; set-up: species or system rat; conditions: male, Sprague-Dawley, rat, brain and plasma, po, 5 mg/kg; read-out: Brain/Plasma COMPOUND I Ratio
reportedMetric: Kp at 6 h
Number only, no unit.

stdin: If you can, please state the reported Kp at 6 h value of "COc1cc(N2CCN(C3CCN(c4ccc(F)c5cccnc45)CC3)CC2)c2ncccc2c1" .
stdout: 0.85

---

test: in vitro; conditions: male, beagle, dog, microsomes
reportedMetric: microsomal CLint at 1 μM (µL/min/mg)
Number only, in µL/min/mg; omit the unit.

stdin: If you can, please state the reported microsomal CLint at 1 μM value of COc1cc(N2CCN(C3CCN(c4ccc(F)c5cccnc45)CC3)CC2)c2ncccc2c1 [COMPOUND I] .
stdout: 55
